Source of measurements: paper PMC7144182

Consider the following compounds; for each one, report its fold more inhibiting than the respective methylene linker analogue.
- systemTested: purified human ALK5 kinase domain (Homo sapiens)
- Construct: using the purified human ALK5 kinase domain produced in Sf9 insect cells; host or cells: Sf9 insect cells
- Sequence (P36897 205-495 limits assumed): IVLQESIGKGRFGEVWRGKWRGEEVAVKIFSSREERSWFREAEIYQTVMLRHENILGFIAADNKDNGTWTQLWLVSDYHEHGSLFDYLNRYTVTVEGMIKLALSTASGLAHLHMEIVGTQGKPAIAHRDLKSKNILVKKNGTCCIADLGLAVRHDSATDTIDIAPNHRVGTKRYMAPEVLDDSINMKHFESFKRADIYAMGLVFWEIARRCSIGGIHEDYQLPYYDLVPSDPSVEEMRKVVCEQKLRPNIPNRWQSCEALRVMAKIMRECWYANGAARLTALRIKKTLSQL
- test: ALK5 kinase assay (33PanQinase, casein as substrate)
- Assay type: biochemical
- testParameters: vs 11a, 11b, 11c, 11g respectively
Number in fold, nothing else.

Query: Tell me the measured fold more inhibiting than the respective methylene linker analogue of CCc1cccc(-c2[nH]c(CCc3ccc(C(N)=O)cc3)nc2-c2ccc3nccnc3c2)n1 [Compound 16b] , please.
Result: 2.7

Query: Tell me the measured fold more inhibiting than the respective methylene linker analogue of Cc1cccc(-c2[nH]c(CCc3ccc(C(N)=O)cc3)nc2-c2ccc3nccnc3c2)n1 [Compound 16a] , please.
Result: 2.9

Query: Tell me the measured fold more inhibiting than the respective methylene linker analogue of CC(C)c1cccc(-c2[nH]c(CCc3cccc(C(N)=O)c3)nc2-c2ccc3nccnc3c2)n1 [Compound 16g] , please.
Result: 2.1

Query: Tell me the measured fold more inhibiting than the respective methylene linker analogue of CC(C)c1cccc(-c2[nH]c(CCc3ccc(C(N)=O)cc3)nc2-c2ccc3nccnc3c2)n1 [Compound 16c] , please.
Result: 3.4

###

Target protein (sequence): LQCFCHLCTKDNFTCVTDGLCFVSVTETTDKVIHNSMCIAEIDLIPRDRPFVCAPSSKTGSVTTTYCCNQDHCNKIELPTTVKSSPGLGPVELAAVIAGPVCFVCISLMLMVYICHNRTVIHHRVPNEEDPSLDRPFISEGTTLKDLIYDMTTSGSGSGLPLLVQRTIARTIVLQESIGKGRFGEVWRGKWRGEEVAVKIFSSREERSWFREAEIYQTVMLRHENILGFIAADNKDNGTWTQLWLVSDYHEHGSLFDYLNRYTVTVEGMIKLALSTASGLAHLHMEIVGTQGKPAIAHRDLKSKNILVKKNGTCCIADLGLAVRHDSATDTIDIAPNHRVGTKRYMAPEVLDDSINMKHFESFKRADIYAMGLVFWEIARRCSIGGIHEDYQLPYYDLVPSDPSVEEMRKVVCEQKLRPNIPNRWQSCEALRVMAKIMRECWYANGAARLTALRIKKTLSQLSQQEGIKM
parameter: pIC50
The value called pIC50 is obtained by taking minus log10 of the concentration in mol/L.

Query: Tell me the measured pIC50 of Cc1cccc(-c2[nH]c(Cc3cccc(C(N)=O)c3)nc2-c2ccc3nccnc3c2)n1 [Compound 11e] , please.
Result: 7.89

###

- systemTested: purified human ALK5 kinase domain (Homo sapiens, UniProt P36897)
- Construct: using the purified human ALK5 kinase domain produced in Sf9 insect cells
- Sequence (P36897 205-495 limits assumed): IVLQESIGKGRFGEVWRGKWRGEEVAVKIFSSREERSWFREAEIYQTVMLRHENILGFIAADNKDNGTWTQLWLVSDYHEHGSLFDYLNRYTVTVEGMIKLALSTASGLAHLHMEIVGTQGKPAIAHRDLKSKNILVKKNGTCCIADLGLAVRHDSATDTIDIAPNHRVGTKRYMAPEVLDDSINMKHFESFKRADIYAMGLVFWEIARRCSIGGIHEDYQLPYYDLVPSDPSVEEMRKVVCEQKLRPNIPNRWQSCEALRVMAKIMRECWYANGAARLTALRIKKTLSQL
- test: ALK5 kinase assay (33PanQinase, casein as substrate)
- testParameters: casein substrate, 1 μM ATP; singlicate (11e: mean of triplicates)
pIC50: −log10 of the molar value.
Binary classification by pIC50, with 7 as an inclusive lower bound for yes; all other cases are no.

Query: Is pIC50 at least 7? Consider CCCCc1cccc(-c2[nH]c(Cc3cccc(C(N)=O)c3)nc2-c2ccc3nccnc3c2)n1 [Compound 11h]
Result: no

Query: Is pIC50 at least 7? Consider `Cc1cccc(-c2[nH]c(CCCc3ccc(C(N)=O)cc3)nc2-c2ccc3c(c2)OCO3)n1`
Result: no

Query: Is pIC50 at least 7? Consider Cc1cccc(-c2[nH]c(CCc3cccc(C(N)=O)c3)nc2-c2ccc3nccnc3c2)n1 [Compound 16e]
Result: yes

Query: Is pIC50 at least 7? Consider CCCCc1cccc(-c2[nH]c(CCc3ccc(C(N)=O)cc3)nc2-c2ccc3nccnc3c2)n1 [Compound 16d]
Result: no

Query: Is pIC50 at least 7? Consider CCCCc1cccc(-c2[nH]c(CCc3cccc(C(N)=O)c3)nc2-c2ccc3nccnc3c2)n1 [Compound 16h]
Result: no

Query: Is pIC50 at least 7? Consider CC(C)c1cccc(-c2[nH]c(CCc3ccc(C(N)=O)cc3)nc2-c2ccc3nccnc3c2)n1 [Compound 16c]
Result: no
